Each entry below carries its recorded speed of sound.
- stated.conditions: 298.15 K; 101 kPa; Liquid; Sing-around technique in a fixed-path interferometer
attribute.measured: speed of sound (m/s)

>>> measured_result("CCCCCCCCO")
1348
>>> measured_result("CCCCCCCC")
1172.7
>>> measured_result("CCCCCC")
1077.8
>>> measured_result("CCCCCCCCCC")
1234.8

====

- stated.conditions: 308.15 K; 101 kPa; Liquid
Each entry below carries its recorded mass density.
attribute.measured: mass density (kg/m3)

>>> measured_result("CCCCCCCCCC")
719.23
>>> measured_result("CCCCCCCCO")
815.286
>>> measured_result("CCCCCCCC")
690.416
>>> measured_result("CCCCCC")
645.767

====

- stated.conditions: 298.15 K; 101 kPa; Liquid; Capillary tube (Ostwald / Ubbelohde) method
± gives the expanded uncertainty stated by the source.
attribute.measured: viscosity

>>> measured_result("CCCCCCCCO")
"7.508 ± 0.042 mPa·s"
>>> measured_result("CCCCCC")
"0.313 ± 0.007 mPa·s"
>>> measured_result("CCCCCCCCCC")
"0.852 ± 0.015 mPa·s"
>>> measured_result("CCCCCCCC")
"0.518 ± 0.007 mPa·s"

====

- stated.conditions: 308.15 K; 101 kPa; Liquid; Sing-around technique in a fixed-path interferometer
Each entry below carries its recorded speed of sound.
attribute.measured: speed of sound (m/s)

>>> measured_result("CCCCCC")
1032.9
>>> measured_result("CCCCCCCCCC")
1195.6
>>> measured_result("CCCCCCCCO")
1314.1
>>> measured_result("CCCCCCCC")
1131.7

====

- stated.conditions: 303.15 K; 101 kPa; Liquid; Sing-around technique in a fixed-path interferometer
Each entry below carries its recorded speed of sound.
attribute.measured: speed of sound (m/s)

>>> measured_result("CCCCCCCCCC")
1215.2
>>> measured_result("CCCCCC")
1055.2
>>> measured_result("CCCCCCCC")
1152.1
>>> measured_result("CCCCCCCCO")
1330.8

====

- stated.conditions: 303.15 K; 101 kPa; Liquid
attribute.measured: mass density (kg/m3)

>>> measured_result("CCCCCC")
650.369
>>> measured_result("CCCCCCCC")
694.497
>>> measured_result("CCCCCCCCO")
818.796
>>> measured_result("CCCCCCCCCC")
723.042

====

Each entry below carries its recorded mass density.
- stated.conditions: 298.15 K; 101 kPa; Liquid
± gives the expanded uncertainty stated by the source.
attribute.measured: mass density

>>> measured_result("CCCCCC [hexane]")
"655.072 ± 0.92 kg/m3"
>>> measured_result("CCCCCCCC [octane]")
"698.58 ± 0.77 kg/m3"
>>> measured_result("CCCCCCCCO [octan-1-ol]")
"821.813 ± 0.54 kg/m3"
>>> measured_result("CCCCCCCCCC [decane]")
"726.806 ± 1.7 kg/m3"

The measured values listed here are drawn from the NIST ThermoML archive (doi:10.1016/j.jct.2008.02.005).
